test system: MDA-MB-231; experiment: Anticancer activity against human MDA-MB-231 cells assessed as cell growth inhibition measured after 48 hrs by MTT assay; assay type: functional, cell-based; conditions: MDA-MB-231, 48 h
pIC50: −log10 of the molar value.
Endpoint name: pIC50

COC(=O)c1c(-c2cc(O)c3c(c2)C(=O)c2cccc(O)c2C3=O)nn(-c2ccc(C)cc2)c1C(=O)OC | 5.88

1: CCOC(=O)c1c(-c2cc(O)c3c(c2)C(=O)c2cccc(O)c2C3=O)nn(-c2ccc(OC)cc2)c1C(=O)OCC
2: CCOC(=O)c1c(-c2cc(O)c3c(c2)C(=O)c2cccc(O)c2C3=O)nn(-c2ccc(Br)cc2)c1C(=O)OCC
3: CCOC(=O)c1c(-c2cc(O)c3c(c2)C(=O)c2cccc(O)c2C3=O)nn(-c2ccc(C#N)cc2)c1C(=O)OCC
Sort the 3 compounds by pIC50; largest first, smallest last. Thanks in advance for listing the labels in the requested order. 3, 2, 1

I: COC(=O)c1c(-c2cc(O)c3c(c2)C(=O)c2cccc(O)c2C3=O)nn(-c2ccc(OC(F)(F)F)cc2)c1C(=O)OC
II: CCOC(=O)c1c(-c2cc(O)c3c(c2)C(=O)c2cccc(O)c2C3=O)nn(-c2ccccc2C)c1C(=O)OCC
III: CCOC(=O)c1c(-c2cc(O)c3c(c2)C(=O)c2cccc(O)c2C3=O)nn(-c2cccc(C)c2)c1C(=O)OCC
Please rank these compounds by pIC50 in descending order. Reply with the item labels sorted in the order that was asked for. III, I, II

P: COc1cccc2c1C(=O)c1c(O)c3c(c(O)c1C2=O)C[C@@](O)(C(=O)CO)C[C@@H]3O[C@H]1C[C@H](N)[C@H](O)[C@H](C)O1
Q: COC(=O)c1c(-c2cc(O)c3c(c2)C(=O)c2cccc(O)c2C3=O)nn(-c2ccccc2)c1C(=O)OC
// task: argmin of pIC50 over [ P , Q ] // output: label of the selected item Q

====

test system: MDA-MB-231; assay: Anticancer activity against human MDA-MB-231 cells assessed as cell growth inhibition measured after 48 hrs by MTT assay; assay type: functional, cell-based; conditions: MDA-MB-231, 48 h
Endpoint name: IC50 (µM)

CCOC(=O)c1c(-c2cc(O)c3c(c2)C(=O)c2cccc(O)c2C3=O)nn(-c2ccc(Cl)cc2)c1C(=O)OCC | 6.2
O=Cc1cc(O)c2c(c1)C(=O)c1cccc(O)c1C2=O | 4.99
O=C1c2cccc(O)c2C(=O)c2c(O)cc(CO)cc21 [ALOE-EMODIN] | 12.2
